Source listed as paper PMC2504689.

Assay type: cell-based, African green monkey
Conditions: African green monkey
PROPERTY: IC50 at 72 h

Assign IC50 at 72 h to the following record: CO[C@H]1/C=C/O[C@@]2(C)Oc3c(C)c(O)c4c(O)c(c(/C=N/N5CCN(C)CC5)c(O)c4c3C2=O)NC(=O)/C(C)=C\C=C\[C@H](C)[C@H](O)[C@@H](C)[C@@H](O)[C@@H](C)[C@H](OC(C)=O)[C@@H]1C [RMP, Rifampin, reference compound] 112 mg/L

Specify measured IC50 at 72 h for CCCCCCC/C=C\C(O)C#CC#CC(=O)CCOC (stereo not shown) . > 120 mg/L

Tell us which IC50 at 72 h value is on record for CCCCCCC/C=C\[C@H](O)C#CC#C[C@@H](O)CC > 120 mg/L

// Input: C=C[C@@H](O)C#CC#C[C@@H](O)/C=C\CCCCCCC . Output its IC50 at 72 h only. > 120 mg/L
